Target: human Hv1 (wild type, dimeric) (Homo sapiens, UniProt Q96D96)
Construct: gene HVCN1; full-length human Hv1 homodimer, 273 residues; pGEMHE cRNA in Xenopus laevis oocytes, inside-out patches
Sequence (Q96D96 whole entry): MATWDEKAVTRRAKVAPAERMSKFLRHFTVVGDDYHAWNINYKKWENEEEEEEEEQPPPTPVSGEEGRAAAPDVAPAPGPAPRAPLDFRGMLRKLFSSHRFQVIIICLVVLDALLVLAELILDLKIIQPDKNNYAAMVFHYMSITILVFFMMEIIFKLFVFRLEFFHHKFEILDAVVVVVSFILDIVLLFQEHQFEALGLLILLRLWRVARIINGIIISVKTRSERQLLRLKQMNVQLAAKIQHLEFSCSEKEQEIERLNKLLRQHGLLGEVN
Assay: cell-based
Parameters: species or system Xenopus oocytes; patch-clamp proton currents, Hill fit of current inhibition, +120 mV, pHi = pHo = 6.0
Conditions: apparent Kd, Hill fit of current inhibition; read-out: Kd (µM) (±SE)
MEASURED_PROPERTY: Kd (µM)
One number for each entry, in µM.

I'd like to know its Kd. The compound in question is N=C(N)Nc1nc2ccccc2s1 [compound 2, 2-guanidino-benzothiazole]
90

* * *

Target: I127C+βME (Homo sapiens, UniProt Q96D96, I127C)
Construct: gene HVCN1; Hv1 homodimer, cysteines reduced by 10 mM βME
Assay: cell-based
Parameters: species or system Xenopus oocytes; patch-clamp proton currents, Hill fit of current inhibition, +120 mV, pHi = pHo = 6.0
Settings: read-out: Kd (µM) (±SE)
Procedure: [2] 2-guanidino-benzothiazole (GBTA), [3] (5-trifluoromethyl-1,3-benzothiazol-2-yl)guanidine, [4] naphtho[1,2-d][1,3]thiazol-2-yl-guanidine, [5] (4-methyl-1,3-thiazol-2-yl)guanidine, [6] […] 1-[4-(4-chlorophenyl)-1,3-thiazol-2-yl]guanidine, [12] […] Hv1 proton currents were measured in inside out patches from Xenopus oocytes in response to depolarizations to +120 mV from a holding potential of −80 mV. […] Hill coefficients in inset histograms were determined from fits reported in Supplementary Figs 3 and 4.
MEASURED_PROPERTY: Kd (µM)
One number for each entry, in µM.

I'd like to know its Kd. The compound in question is N=C(N)Nc1nc2ccccc2s1
44.3
